The reported numbers originate from patent US20190298740A1.

assay: Pharmacokinetics of orally administered squalamine (ENT-01), Phase 2 trial; type: in vivo; conditions: human, in vivo, po, 175 mg, Stage 1, 175 mg oral, n = 6; read-out: T½ (converted)

molecule	half-life
CC(C)[C@@H](CC[C@@H](C)[C@H]1CC[C@H]2[C@@H]3[C@H](O)C[C@H]4C[C@@H](NCCCNCCCCN)CC[C@]4(C)[C@H]3CC[C@]12C)OS(=O)(=O)O (single isomer, unassigned) [squalamine (ENT-01)]	9.1 h

---

Test: Pharmacokinetics of orally administered squalamine (ENT-01), Phase 2 trial
Format: in vivo
Details: human, in vivo, po, 150 mg, Stage 1, 150 mg oral, 7 patients; read-out: AUC0-16hr
Procedure: PK data were collected on the 10 patients enrolled in Stage 1 and 10 patients enrolled in Stage 2 to determine the extent of systemic absorption. In Stage 1, PK data were obtained at each visit, pre-medication, at 1, 2, 4, 8 and 24 hours (Table 11). In Stage 2, PK was measured on days 1 and 6 of the randomization period pre-medication, at 1, 2, 4 and 8 hours (Table 12). The mean Cmax, Tmax and T1/2 and AUC of the squalamine ion following squalamine (ENT-01) oral dosing for Stage 1 patients. […]

molecule	AUC(0-t) / ng·h/mL
CC(C)[C@@H](CC[C@@H](C)[C@H]1CC[C@H]2[C@@H]3[C@H](O)C[C@H]4C[C@@H](NCCCNCCCCN)CC[C@]4(C)[C@H]3CC[C@]12C)OS(=O)(=O)O (single isomer, unassigned) [squalamine (ENT-01)]	64
